# Test system: P388 mouse leukemia cells
# condition-info: 92 h
# Description: Each type of assay must be simplified and miniaturized to assess the activities of the library peptides in a 96-well format for the high-throughput screening. […] Mammalian cytotoxicity assay of bead-derived peptides . P388 cells were obtained from Institute of […] for 92 h, the numbers of viable cells were determined by […] at 37 °C. The absorbance of each well at 415 nm was measured using a Benchmark microplate reader (Bio-Rad). The cytotoxicities were evaluated as cell viability (%). […]
Where a SMILES comes first, the peptide text is derived from it. [ ]: non-standard residue; d: D form. The star is where a group is joined. NHCH2CH2OH = OCCN*; For = O=C*
// reported cell viability/% per item

Request: Report cell viability/% for CC(C)C[C@@H](NC(=O)[C@H](C)NC(=O)CNC(=O)[C@@H](NC=O)C(C)C)C(=O)N[C@@H](C)C(=O)N[C@H](CC(C)C)C(=O)N[C@H](C(=O)N[C@H](CC(C)C)C(=O)N[C@@H](Cc1c[nH]c2ccccc12)C(=O)N[C@@H](C(=O)N[C@@H](Cc1c[nH]c2ccccc12)C(=O)N[C@@H](C(=O)N[C@@H](Cc1c[nH]c2ccccc12)C(=O)N[C@@H](C(=O)N[C@@H](Cc1c[nH]c2ccccc12)C(=O)NCCO)C(C)C)C(C)C)[C@H](C)O)C(C)C [compound 5996] (For-VGA[dL]A[dL]V[dL]W[dT]W[dV]W[dV]W-NHCH2CH2OH) please.
Response: 78.7%

Let's switch to this compound now.
Request: Report cell viability/% for CC(C)C[C@@H](NC(=O)[C@H](Cc1c[nH]c2ccccc12)NC(=O)[C@H](NC(=O)[C@H](Cc1c[nH]c2ccccc12)NC(=O)[C@H](NC(=O)[C@H](Cc1c[nH]c2ccccc12)NC(=O)[C@@H](CC(C)C)NC(=O)[C@@H](NC(=O)[C@H](NC(=O)[C@H](C)NC(=O)[C@H](NC(=O)[C@H](C)NC(=O)CNC(=O)[C@@H](NC=O)C(C)C)C(C)C)C(C)C)C(C)C)C(C)C)C(C)C)C(=O)N[C@@H](Cc1c[nH]c2ccccc12)C(=O)NCCO [compound 97] (For-VGA[dV]A[dV]V[dL]W[dV]W[dV]W[dL]W-NHCH2CH2OH) please.
Response: 59.7%

====

# Test system: Streptococcus pyogenes SSI-9
# assay-method-text: Antibacterial activity assay of bead-derived peptides (three concentrations)
# Assay type: cell-based
# Design: key: +++: inhibition by the 640-fold diluted peptide solution; ++: inhibition by the 160-fold diluted solution; +: inhibition by the 40-fold diluted solution; -: no inhibition
# condition-info: S. pyogenes, bead-derived peptide solution, three concentrations
Where a SMILES comes first, the peptide text is derived from it. [ ]: non-standard residue; d: D form. The star is where a group is joined. NHCH2CH2OH = OCCN*; For = O=C*
readout-type: antibacterial activity

Request: Report antibacterial activity for CC(C)C[C@@H](NC(=O)[C@H](Cc1c[nH]c2ccccc12)NC(=O)[C@H](NC(=O)[C@@H](NC(=O)[C@H](NC(=O)[C@H](C)NC(=O)[C@H](NC(=O)[C@H](C)NC(=O)CNC(=O)[C@@H](NC=O)C(C)C)[C@H](C)O)C(C)C)C(C)C)C(C)C)C(=O)N[C@@H](Cc1c[nH]c2ccccc12)C(=O)N[C@@H](C(=O)N[C@@H](Cc1c[nH]c2ccccc12)C(=O)N[C@@H](C(=O)N[C@@H](Cc1c[nH]c2ccccc12)C(=O)NCCO)C(C)C)C(C)C [compound 629] (For-VGA[dT]A[dV]V[dV]W[dL]W[dV]W[dV]W-NHCH2CH2OH) please.
Response: -

Request: Report antibacterial activity for CNC(=O)C[C@@H](NC(=O)[C@H](Cc1c[nH]c2ccccc12)NC(=O)[C@@H](CC(C)C)NC(=O)[C@H](Cc1c[nH]c2ccccc12)NC(=O)[C@@H](CC(C)C)NC(=O)[C@H](Cc1c[nH]c2ccccc12)NC(=O)[C@H](NC(=O)[C@@H](NC(=O)[C@H](NC(=O)[C@H](C)NC(=O)[C@@H](CC(C)C)NC(=O)[C@H](C)NC(=O)CNC(=O)[C@@H](NC=O)C(C)C)C(C)C)C(C)C)C(C)C)C(=O)N[C@@H](Cc1c[nH]c2ccccc12)C(=O)NCCO [compound 11422] (For-VGA[dL]A[dV]V[dV]W[dL]W[dL]W[dD](NHMe)W-NHCH2CH2OH) please.
Response: +
